tested on: HEK-293T; assay: Multiplex assay against HEK293T; type: toxicity, cell-based; conditions: human, 48 h, 1 µM, compound concentration 1 uM, replicate 1
Recorded Population Membrane Permeable-Phenotype (%) by entry
The answer is to be given in %; state only the numeric part.

molecule	numeric readout
CC(C)Oc1ccccc1C(=O)Nc1ccccc1C(=O)Nc1cccc(S(=O)(=O)C(F)(F)F)c1	2

[ask] If you can, please state the reported Population Membrane Permeable-Phenotype (%) value of COc1cc(Nc2nccc(-c3cnn4nc(OC)ccc34)n2)cc(C(F)(F)F)c1 .
[reply] 2

[ask] If you can, please state the reported Population Membrane Permeable-Phenotype (%) value of Cc1ccc2c(c1)c1c(n2CCc2ccc(C)nc2)CCN(C)C1 [LATREPIRDINE] .
[reply] 2

[ask] If you can, please state the reported Population Membrane Permeable-Phenotype (%) value of O=c1cc(N2CCOCC2)oc2c(-c3cccc4c3sc3ccccc34)cccc12 .
[reply] 2

----------
tested on: HEK-293T; experiment: Multiplex assay against HEK293T; format: toxicity, cell-based; details: human, 48 h, 10 µM, compound concentration 10 uM, replicate 1;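 for Population Tubulin-Different-Phenotype (%): share of the cells with healthy nuclei that show this phenotype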
Recorded Population Tubulin-Different-Phenotype (%) by entry
The answer is to be given in %; state only the numeric part.

Known results for compounds:
compound	target or system	numeric readout
Cc1ccc2c(c1)c1c(n2CCc2ccc(C)nc2)CCN(C)C1 [LATREPIRDINE]	HEK-293T	94
O=C(c1cc2c(cc1F)OC(c1ccc(F)cc1)(c1ccc(Cl)cc1Cl)O2)N1CCOCC1 (stereo not given)	HEK-293T	87
COc1ccccc1CN[C@H]1C2CCN(CC2)[C@H]1C(c1ccccc1)c1ccccc1 [CP-96345]	HEK-293T	94
CC(C)NC(=O)N1CC[C@H](NC2=Nc3cc(F)ccc3N(CC(F)F)c3ccc(Cl)cc32)C1	HEK-293T	62
Cl.O=C(O)c1cc(-c2ccc(C3CCNCC3)cc2)c2ccc(-c3ccc(C(F)(F)F)cc3)cc2c1	HEK-293T	78
C#Cc1cccc(Nc2ncnc3cc(OCCOC)c(OCCOC)cc23)c1 [ERLOTINIB]	HEK-293T	91

[ask] Which measured Population Tubulin-Different-Phenotype (%) belongs to COC(=O)C1=C(C)NC(C)=C(C(=O)OCCCN2CCC(c3ccccc3)(c3ccccc3)CC2)[C@H]1c1cccc([N+](=O)[O-])c1 [NIGULDIPINE] , tested on HEK-293T?
[reply] 55

[ask] Which measured Population Tubulin-Different-Phenotype (%) belongs to CCc1nn(CCCN2CCN(c3cccc(Cl)c3)CC2)c(=O)n1CCOc1ccccc1.Cl [NEFAZODONE HYDROCHLORIDE] , tested on HEK-293T?
[reply] 94

[ask] Which measured Population Tubulin-Different-Phenotype (%) belongs to CC(C)c1noc(N2CCC(COc3ccc(-c4ccc(S(C)(=O)=O)cc4)nc3)CC2)n1 [GSK-1292263] , tested on HEK-293T?
[reply] 58

[ask] Which measured Population Tubulin-Different-Phenotype (%) belongs to CC(C)OC(=O)N1CCC(Oc2ncnc3c2cnn3-c2ccc(S(C)(=O)=O)cc2F)CC1 , tested on HEK-293T?
[reply] 53

----------
system: Fibroblast; assay: Multiplex assay against human fibroblast; assay type: toxicity, cell-based; details: 12 h, 10 µM, compound concentration 10 uM, replicate 2
measured quantity: Population Normal (%)
The answer is to be given in %; state only the numeric part.

compound	Population Normal (%)
CCCSc1nc(N[C@@H]2C[C@H]2c2ccc(F)c(F)c2)c2nnn([C@@H]3C[C@H](OCCO)[C@@H](O)[C@H]3O)c2n1 [TICAGRELOR]	88
Cc1c[nH]c2nccc(Oc3c(F)cc(Nc4cc(Cl)nc(N)n4)cc3F)c12 [BAY-549]	93
C=CC(=O)Nc1cccc(Sc2nc(Nc3ccc(N4CCN(C)CC4)cc3)ncc2Cl)c1	66

[ask] If you can, please state the reported Population Normal (%) value of COc1cc2ncn(-c3cc(OCc4ccccc4C(F)(F)F)c(C(N)=O)s3)c2cc1OC [GW843682X] .
[reply] 93

----------
test system: U2OS; assay: Multiplex assay against U2OS; assay type: toxicity, cell-based; conditions: human, 48 h, 1 µM, compound concentration 1 uM, replicate 1
measured quantity: Population Mitochondria Different-Phenotype (%)
The answer is to be given in %; state only the numeric part.

compound	units text	numeric readout
COc1ccc(-c2ccc3ncc4c(c3c2)n(-c2ccc(N3CCNCC3)c(C(F)(F)F)c2)c(=O)n4C)cn1.O=C(O)/C=C\C(=O)O [BGT-226]	%	80

[ask] If you can, please state the reported Population Mitochondria Different-Phenotype (%) value of CC1=C(C(=O)Nc2cc3cn[nH]c3cc2F)C(c2ccc(C(F)(F)F)cc2)CC(=O)N1 (stereo not drawn) .
[reply] 12

[ask] If you can, please state the reported Population Mitochondria Different-Phenotype (%) value of Cc1c[nH]c2nccc(Oc3c(F)cc(Nc4cc(Cl)nc(N)n4)cc3F)c12 [BAY-549] .
[reply] 13

----------
system: HEK-293T; test: Multiplex assay against HEK293T; assay type: toxicity, cell-based; conditions: human, 24 h, 1 µM, compound concentration 1 uM, replicate 1
Our labelling divides records by Population Apoptotic (%) into ranges: low (below 40%), mid (40% to below 50%), high (50% or more)

Example results:
compound	label
CCc1ccc(OCc2ccccc2C(=O)Nc2ccc3nc(C)cc(N)c3c2)cc1.Cl	high
Cc1c[nH]c2nccc(Oc3c(F)cc(Nc4cc(Cl)nc(N)n4)cc3F)c12	mid
CC(C)CC(=O)Nc1[nH]nc2c1CN(C(=O)C1CCN(C)CC1)C2(C)C	low
Cc1ccccc1C(c1ccccc1C)N1C2CCC1CC(O)(c1ccccc1)C2 (configuration not stated)	mid
O=c1[nH]c2ccccc2n1C1CCN(Cc2ccc(-c3[nH]c4cc5ncnc5cc4nc3-c3ccccc3)cc2)CC1	low

[ask] Lab log: CNC(=O)Nc1ccc(-c2nc(N3CC4CCC(C3)O4)c3cnn(C4CCC5(CC4)OCCO5)c3n2)cc1 — assign Population Apoptotic (%) category
[reply] high

[ask] Lab log: Cc1nc(N2CC[C@H](O)C2)ncc1-c1cc(C(F)(F)F)cc2[nH]ncc12 — assign Population Apoptotic (%) category
[reply] low

[ask] Lab log: COc1ccccc1CN[C@H]1C2CCN(CC2)[C@H]1C(c1ccccc1)c1ccccc1 — assign Population Apoptotic (%) category
[reply] high

----------
test system: HEK-293T; assay: Multiplex assay against HEK293T; type: toxicity, cell-based; conditions: human, 48 h, 10 µM, compound concentration 10 uM, replicate 2;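 for Population Tubulin-Different-Phenotype (%): share of the cells with healthy nuclei that show this phenotype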
For each record, check the reported Population Tubulin-Different-Phenotype (%): if it is below 60% write true, else write false.

Example results:
molecule	target or system	label
Cc1ccc2c(c1)c1c(n2CCc2ccc(C)nc2)CCN(C)C1 [LATREPIRDINE]	HEK-293T	false
CC1=C(C(=O)Nc2cc3cn[nH]c3cc2F)C(c2ccc(C(F)(F)F)cc2)CC(=O)N1 (stereo not given)	HEK-293T	true
COC(=O)C1=C(C)NC(C)=C(C(=O)OCCCN2CCC(c3ccccc3)(c3ccccc3)CC2)[C@H]1c1cccc([N+](=O)[O-])c1 [NIGULDIPINE]	HEK-293T	false
CCc1nn(CCCN2CCN(c3cccc(Cl)c3)CC2)c(=O)n1CCOc1ccccc1.Cl [NEFAZODONE HYDROCHLORIDE]	HEK-293T	false
CC(C)OC(=O)N1CCC(Oc2ncnc3c2cnn3-c2ccc(S(C)(=O)=O)cc2F)CC1	HEK-293T	true

[ask] Strictly below 60% in Population Tubulin-Different-Phenotype (%)? CCc1ccc(OCc2ccccc2C(=O)Nc2ccc3nc(C)cc(N)c3c2)cc1.Cl
[reply] false

[ask] Strictly below 60% in Population Tubulin-Different-Phenotype (%)? COc1ccccc1CN[C@H]1C2CCN(CC2)[C@H]1C(c1ccccc1)c1ccccc1 [CP-96345]
[reply] false

[ask] Strictly below 60% in Population Tubulin-Different-Phenotype (%)? CC(C)c1noc(N2CCC(COc3ccc(-c4ccc(S(C)(=O)=O)cc4)nc3)CC2)n1 [GSK-1292263]
[reply] true

[ask] Strictly below 60% in Population Tubulin-Different-Phenotype (%)? C#Cc1cccc(Nc2ncnc3cc(OCCOC)c(OCCOC)cc23)c1 [ERLOTINIB]
[reply] false

[ask] Strictly below 60% in Population Tubulin-Different-Phenotype (%)? CC(C)Oc1ccccc1C(=O)Nc1ccccc1C(=O)Nc1cccc(S(=O)(=O)C(F)(F)F)c1
[reply] false

----------
system: HEK-293T; experiment: Multiplex assay against HEK293T; assay type: toxicity, cell-based; conditions: human, 24 h, 1 µM, compound concentration 1 uM, replicate 2
Recorded Population Normal (%) by entry
The answer is to be given in %; state only the numeric part.

molecule	measured quantity	numeric readout
CC1=C(C(=O)Nc2cc3cn[nH]c3cc2F)C(c2ccc(C(F)(F)F)cc2)CC(=O)N1 (stereo unspecified)	Population Normal (%)	98
CCOC(=O)Nc1cc(-c2ccc(C)c(NS(C)(=O)=O)c2)nn2c(C)nnc12	Population Normal (%)	95
CC(C)(C)NC[C@H](O)COc1nsnc1N1CCOCC1	Population Normal (%)	98
CC(C)OC(=O)N1CCC(Oc2ncnc3c2cnn3-c2ccc(S(C)(=O)=O)cc2F)CC1	Population Normal (%)	96
C=CC(=O)Nc1cccc(Sc2nc(Nc3ccc(N4CCN(C)CC4)cc3)ncc2Cl)c1	Population Normal (%)	89

[ask] Which measured Population Normal (%) belongs to CCCSc1nc(N[C@@H]2C[C@H]2c2ccc(F)c(F)c2)c2nnn([C@@H]3C[C@H](OCCO)[C@@H](O)[C@H]3O)c2n1 , tested on HEK-293T?
[reply] 96

[ask] Which measured Population Normal (%) belongs to Cc1ccc2c(c1)c1c(n2CCc2ccc(C)nc2)CCN(C)C1 [LATREPIRDINE] , tested on HEK-293T?
[reply] 95

[ask] Which measured Population Normal (%) belongs to C=CC(=O)Nc1ccc2[nH]c(=O)n(C3CCN(Cc4ccc(-c5nc6cc[nH]c(=O)c6cc5-c5ccccc5)cc4)CC3)c2c1 , tested on HEK-293T?
[reply] 95
